Each entry below lists one item and its recorded IC50 value.
Biological target: human vanin-1 (Homo sapiens (Human), UniProt O95497)
Sequence (O95497 22-491): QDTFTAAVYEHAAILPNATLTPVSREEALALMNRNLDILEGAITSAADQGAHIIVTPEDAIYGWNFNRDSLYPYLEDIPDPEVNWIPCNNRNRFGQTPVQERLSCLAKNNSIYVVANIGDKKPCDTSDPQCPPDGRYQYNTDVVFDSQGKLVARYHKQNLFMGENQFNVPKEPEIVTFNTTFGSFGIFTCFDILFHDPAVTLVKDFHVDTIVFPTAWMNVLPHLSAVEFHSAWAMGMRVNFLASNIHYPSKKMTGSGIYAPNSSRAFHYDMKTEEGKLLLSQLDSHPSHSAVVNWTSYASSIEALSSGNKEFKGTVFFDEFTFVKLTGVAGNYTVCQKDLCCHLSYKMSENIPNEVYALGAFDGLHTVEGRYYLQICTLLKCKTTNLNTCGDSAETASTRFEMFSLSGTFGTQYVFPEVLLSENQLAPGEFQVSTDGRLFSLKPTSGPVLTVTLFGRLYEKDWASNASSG
Assay: Human Vanin-1 Enzyme Assay 2
Type: biochemical
Conditions: 1 nM human vanin-1, 10 uM substrate, 45 min
Express your answer in nM, writing the number without its unit.

Worked set:
Cc1cccc(C(=O)c2cnc(NCc3ccccc3)nc2)c1 [Example 40] :: 170
CS(=O)(=O)c1cccc(C(=O)c2cnc(NCc3ccc(C(N)=O)cc3)nc2)c1 [Example 125] :: 21.9
COc1cccc(C(=O)c2cnc(NCc3ccc(F)cc3)nc2)c1 [Example 37] :: 226

Moving on to another compound below.
So the reported IC50 for N#Cc1cccc(C(=O)c2ccc(NCc3cncnc3)nc2)c1 [Example 140] , on human vanin-1 (Homo sapiens (Human), UniProt O95497), turned out to be 64.4

====

Target: human vanin-1 (Homo sapiens (Human), UniProt O95497)
Assay: Human Vanin-1 Enzyme Assay 2
Assay type: biochemical
Conditions: 1 nM human vanin-1, 10 uM substrate, 45 min
// returns not satisfied unless IC50 is strictly below 20 nM, in which case satisfied

Past entries and their recorded results:
CN1CCC(CNc2ncc(C(=O)c3cccc(C#N)c3)cn2)CC1 :: not satisfied
COc1cccc(C(=O)c2cnc(NC3(c4cncnc4)CC3)nc2)c1 :: satisfied
O=C(c1ccccc1)c1cnc(NC2(c3ccccc3)CC2)nc1 :: not satisfied
CC(Nc1ncc(C(=O)c2cccc(C#N)c2)cn1)c1ccc(C(N)=O)cc1 (single isomer, unassigned; (+)) [Example 10] :: not satisfied
CS(=O)(=O)c1cccc(C(=O)c2ccc(NCc3cncnc3)nc2)c1 :: not satisfied

## Input I'd appreciate it if you could check whether O=C(c1ccccc1)c1cnc(NCc2cncnc2)nc1 has IC50 smaller than 20 nM.
## Output not satisfied

## Input I'd appreciate it if you could check whether CS(=O)(=O)c1cccc(C(=O)c2cnc(NCc3cccnc3)nc2)c1 has IC50 smaller than 20 nM.
## Output satisfied

## Input I'd appreciate it if you could check whether N#Cc1cccc(C(=O)c2cnc(NCc3ccccc3)nc2)c1 has IC50 smaller than 20 nM.
## Output not satisfied

====

Target: UniProtKB O95497
Assay: Human Vanin-1 Enzyme Assay 1
Assay type: biochemical
Conditions: 25 pM human vanin-1, 50 uM pantetheine 7-amino-4-trifluoromethylcoumarin, 30 min preincubation, 60 min
Procedure: Human Vanin-1 Enzyme Assay 1. The in vitro assay measures enzymatic cleavage of the fluorescently-labeled vanin substrate, pantetheine 7-amino-4-trifluoromethylcoumarin, by human vanin-1. The vanin-1 protein was prepared in-house from a construct expressing the extracellular domain of human vanin-1 (GenBank ID NM_004666) preceded N-terminally by the honey bee melittin signal peptide, a GSG linker sequence, a His6X tag and a FLAG tag. […]
Each entry below lists one item and its recorded IC50 value.
Express your answer in nM, writing the number without its unit.

Worked set:
O=C(c1ccccc1)c1cnc(NCc2ccccc2)nc1 :: 1680
N#Cc1cccc(C(=O)c2cnc(NCc3ccccc3Cl)nc2)c1 :: 95.3
COc1ccc(C(=O)c2cnc(NC3(c4cncnc4)CC3)nc2)cc1C#N :: 1850
Cc1cccc(C(=O)c2cnc(NCc3cccnc3)nc2)c1 :: 47.8

So the reported IC50 for N#Cc1cccc(C(=O)c2cnc(NC3(c4ccccc4)CCC3)nc2)c1 , on UniProtKB O95497, turned out to be 9.9

So the reported IC50 for O=C(c1ccccc1)c1cnc(NCc2cccnn2)nc1 , on UniProtKB O95497, turned out to be 1400

So the reported IC50 for O=C(c1cnc(NCc2ccccn2)nc1)c1ccc(F)c(C(F)(F)F)c1 , on UniProtKB O95497, turned out to be 384

So the reported IC50 for N#Cc1ccc(CNc2ncc(C(=O)c3ccc(F)c(C(F)(F)F)c3)cn2)cc1 , on UniProtKB O95497, turned out to be 503

So the reported IC50 for N#Cc1ccc(CNc2ncc(C(=O)c3cc(F)cc(C(F)(F)F)c3)cn2)cc1 , on UniProtKB O95497, turned out to be 2200

So the reported IC50 for O=C(c1cnc(NCc2ccccc2)nc1)c1ccc2c(c1)OCCO2 , on UniProtKB O95497, turned out to be 4850

So the reported IC50 for O=C(c1cccc(C(F)(F)F)c1)c1ccc(NCc2cccnc2)nn1 , on UniProtKB O95497, turned out to be 789

So the reported IC50 for COc1ccc(C(=O)c2cnc(NC(C)c3ccc(C(N)=O)cc3)nc2)cc1 (stereo not shown) , on UniProtKB O95497, turned out to be 3440

====

Target: human vanin-1 (Homo sapiens (Human), UniProt O95497)
Experiment: Human Vanin-1 Enzyme Assay 3
Format: biochemical
Details: 2 nM human vanin-1, 10 uM substrate, 15 min
Method: Human Vanin-1 Enzyme Assay 3. The in vitro assay measures enzymatic cleavage of the fluorescently-labeled vanin substrate, pantetheine 7-amino-4-trifluoromethylcoumarin, by human vanin-1. […] A working solution of human vanin-1 was prepared by diluting the enzyme stock to 2.5 nM in assay buffer. […] The assay plates were incubated at room temperature for 15 minutes and before they were read on a Tecan Safire using a 405 nm excitation wavelength and a 505 nm emission wavelength for detection.
// returns 0 (no) unless IC50 is strictly below 100 nM, in which case 1 (yes)

Past entries and their recorded results:
O=C(c1cnc(OCc2ccc(F)cc2F)nc1)c1cccc(C(F)(F)F)c1 :: 0 (no)
COc1ccc(CNc2ncc(C(=O)c3cccc(C#N)c3)cn2)cc1 :: 0 (no)
N#Cc1cccc(C(=O)c2cnc(NCc3cnccn3)nc2)c1 :: 1 (yes)

## Input I'd appreciate it if you could check whether O=C(c1cnc(NCc2ccccc2)nc1)c1cccc(Cl)c1 has IC50 smaller than 100 nM.
## Output 0 (no)

## Input I'd appreciate it if you could check whether Cn1cc(C(=O)c2cnc(NCc3cccnc3)nc2)cn1 has IC50 smaller than 100 nM.
## Output 0 (no)

## Input I'd appreciate it if you could check whether O=C(c1cnc(NCc2cccnc2)nc1)c1ccccc1F has IC50 smaller than 100 nM.
## Output 0 (no)

## Input I'd appreciate it if you could check whether O=C(c1cnc(NCc2cccnc2)nc1)c1cccs1 has IC50 smaller than 100 nM.
## Output 0 (no)

====

Target: human vanin-1 (Homo sapiens (Human), UniProt O95497)
Assay: Human Vanin-1 Enzyme Assay 1
Format: biochemical
Details: 25 pM human vanin-1, 50 uM pantetheine 7-amino-4-trifluoromethylcoumarin, 30 min preincubation, 60 min
parameter_measured: pIC50
pIC50 is a log-scale quantity: -log10 of the concentration expressed in molar.

Worked set:
COc1ccc(C(=O)c2cnc(NCc3ccc(C(N)=O)cc3)nc2)cc1 :: 5.64
NC(=O)c1ccc(CNc2ncc(C(=O)c3ccc(F)c(C(F)(F)F)c3)cn2)cc1 :: 7.17
O=C(c1cnc(NCc2cccnc2)nc1)c1ccc(F)c(C(F)(F)F)c1 :: 8.47
CCN1CCCC1CNc1ncc(C(=O)c2cccc(C(F)(F)F)c2)cn1 (stereo not shown) :: 4.92
N#Cc1cccc(C(=O)c2cnc(NCc3cncnc3)nc2)c1 :: 7.44
CC(C)(Nc1ncc(C(=O)c2cccc(Cl)c2)cn1)c1ccccc1 :: 7.13
CC(C)(Nc1ncc(C(=O)c2ccccc2)cn1)c1ccccc1 :: 6.37
O=C(O)c1ccc(CNc2ncc(C(=O)c3ccc(F)c(C(F)(F)F)c3)cn2)cc1 :: 6.00

Please fill in: pIC50 reported for NC(=O)c1ccc(CNc2ncc(C(=O)c3ccc(F)c(C(F)(F)F)c3)cn2)cn1 = 6.85

Please fill in: pIC50 reported for NC(=O)c1ccc(CNc2ncc(C(=O)c3cccc(C(F)(F)F)c3)cn2)cc1 = 8.14

Please fill in: pIC50 reported for O=C(c1cnc(NCc2ccncc2)nc1)c1ccc(F)c(C(F)(F)F)c1 = 6.95

Please fill in: pIC50 reported for N#Cc1cccc(C(=O)c2cnc(NC3(c4ccccc4)CC3)nc2)c1 = 7.73

Please fill in: pIC50 reported for N#Cc1cccc(CNc2ncc(C(=O)c3cccc(C#N)c3)cn2)c1 = 7.00

====

Target: human vanin-1 (Homo sapiens (Human), UniProt O95497)
Assay: Human Vanin-1 Enzyme Assay 1
Format: biochemical
Details: 25 pM human vanin-1, 50 uM pantetheine 7-amino-4-trifluoromethylcoumarin, 30 min preincubation, 60 min
pIC50: −log10 of the molar value.
Label class 1 when pIC50 is at or above 7; otherwise label class 0.

O=C(c1cnc(NCc2ccccc2)nc1)c1cccc(C(F)(F)F)c1 :: class 0
O=C(c1cnc(NCc2ccccc2)nc1)c1cc(F)cc(C(F)(F)F)c1 :: class 0
COc1ccc(C(=O)c2cnc(NC(C)c3cncnc3)nc2)cc1 (stereo not drawn) :: class 0
Cc1cccc(C(=O)c2cnc(NCc3ccc(C(N)=O)cc3)nc2)c1 :: class 0
COc1ccc(CNc2ncc(C(=O)c3ccc(C#N)cc3)cn2)cc1 :: class 0

## Input Reported pIC50 at or above 7? Cc1cccc(C(=O)c2cnc(NCc3ccccc3)nc2)c1
## Output class 0
